Target: Dual specificity protein kinase CLK1 (Homo sapiens)
Sequence (P49759 whole entry): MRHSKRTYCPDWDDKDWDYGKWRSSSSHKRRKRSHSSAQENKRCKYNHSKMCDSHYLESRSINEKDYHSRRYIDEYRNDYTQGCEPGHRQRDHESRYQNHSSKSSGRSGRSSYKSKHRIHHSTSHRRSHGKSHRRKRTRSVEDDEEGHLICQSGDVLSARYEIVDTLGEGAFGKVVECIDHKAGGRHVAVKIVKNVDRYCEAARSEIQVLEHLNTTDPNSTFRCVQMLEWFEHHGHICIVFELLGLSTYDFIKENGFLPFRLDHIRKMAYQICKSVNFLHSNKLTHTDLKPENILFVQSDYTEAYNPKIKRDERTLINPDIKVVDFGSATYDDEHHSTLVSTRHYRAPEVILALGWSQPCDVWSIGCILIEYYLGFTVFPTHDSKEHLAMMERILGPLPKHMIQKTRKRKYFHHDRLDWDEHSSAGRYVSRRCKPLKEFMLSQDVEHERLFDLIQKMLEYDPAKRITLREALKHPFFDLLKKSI
readout_name: IC50

structure: COc1ccc2c(c1)oc1c(Nc3ccc(F)c(Cl)c3)ncnc12
study_target: Dual specificity protein kinase CLK1 (Homo sapiens)
assay_result: > 10 µM

structure: COc1ccc2c(c1)sc1c(Nc3ccc4c(c3)OCO4)ncnc12
study_target: Dual specificity protein kinase CLK1 (Homo sapiens)
assay_result: > 10 µM

structure: COc1ccc2c(c1)oc1c(Nc3ccc(OC)c(OC)c3)ncnc12
study_target: Dual specificity protein kinase CLK1 (Homo sapiens)
assay_result: > 10 µM

structure: COc1ccc2c(c1)oc1c(Nc3ccc(N(C)C)cc3)ncnc12
study_target: Dual specificity protein kinase CLK1 (Homo sapiens)
assay_result: > 10 µM

structure: COc1ccc2c(c1)oc1c(Nc3ccc(F)cc3F)ncnc12
study_target: Dual specificity protein kinase CLK1 (Homo sapiens)
assay_result: > 10 µM

structure: COc1ccc2c(c1)oc1c(Nc3ccc(F)cc3)ncnc12
study_target: Dual specificity protein kinase CLK1 (Homo sapiens)
assay_result: > 10 µM

structure: COc1ccc(Nc2ncnc3c2sc2cc(OC)ccc23)c(F)c1
study_target: Dual specificity protein kinase CLK1 (Homo sapiens)
assay_result: > 10 µM

structure: COc1ccc2c(c1)oc1c(Nc3ccc(Br)cc3)ncnc12
study_target: Dual specificity protein kinase CLK1 (Homo sapiens)
assay_result: > 10 µM

structure: COc1ccc2c(c1)oc1c(N)ncnc12
study_target: Dual specificity protein kinase CLK1 (Homo sapiens)
assay_result: 0.41 µM

structure: COc1ccc(Nc2ncnc3c2oc2cc(OC)ccc23)cc1
study_target: Dual specificity protein kinase CLK1 (Homo sapiens)
assay_result: 1.5 µM

structure: COc1ccc2c(c1)sc1c(Nc3ccc4c(c3)OCCO4)ncnc12
study_target: Dual specificity protein kinase CLK1 (Homo sapiens)
assay_result: 0.68 µM

---

Target: Dual specificity tyrosine-phosphorylation-regulated kinase 1A (Rattus norvegicus, UniProt Q63470)
Test: Inhibition of rat recombinant DYRK1A-GST expressed in Escherichia coli using KKISGRLSPIMTEQ as substrate
readout_name: IC50

structure: COc1ccc2c(c1)oc1c(Nc3ccc(Cl)cc3F)ncnc12
readout_name: IC50
assay_result: > 10 µM
//
structure: COc1ccc(Nc2ncnc3c2sc2cc(OC)ccc23)cc1
readout_name: IC50
assay_result: 7.1 µM
//
structure: COc1ccc2c(c1)sc1c(Nc3ccc(F)c(Cl)c3)ncnc12
readout_name: IC50
assay_result: > 10 µM
//
structure: COc1ccc2c(c1)sc1c(N)ncnc12
readout_name: IC50
assay_result: > 10 µM
//
structure: COc1ccc2c(c1)sc1c(Nc3ccc(Cl)cc3F)ncnc12
readout_name: IC50
assay_result: > 10 µM
//
structure: COc1cc(Nc2ncnc3c2sc2cc(OC)ccc23)cc(OC)c1
readout_name: IC50
assay_result: 3.9 µM
//
structure: COc1ccc2c(c1)oc1c(Nc3cccc(C)c3)ncnc12
readout_name: IC50
assay_result: > 10 µM
//
structure: COc1ccc2c(c1)oc1c(Nc3cc(Cl)cc(Cl)c3)ncnc12
readout_name: IC50
assay_result: > 10 µM
//
structure: COc1ccc2c(c1)oc1c(N)ncnc12
readout_name: IC50
assay_result: 1.1 µM
//
structure: COc1ccc2c(c1)oc1c(Nc3ccc4c(c3)OCCO4)ncnc12
readout_name: IC50
assay_result: > 10 µM
//
structure: COc1ccc2c(c1)sc1c(Nc3ccccc3)ncnc12
readout_name: IC50
assay_result: > 10 µM
//
structure: COc1ccc2c(c1)sc1c(Nc3ccc(Cl)c(Cl)c3)ncnc12
readout_name: IC50
assay_result: 2 µM
//
structure: COc1cc(Nc2ncnc3c2oc2cc(OC)ccc23)cc(OC)c1
readout_name: IC50
assay_result: > 10 µM
//
structure: COc1ccc2c(c1)oc1c(Nc3ccccc3Cl)ncnc12
readout_name: IC50
assay_result: 3.2 µM
//
structure: COc1ccc2c(c1)oc1c(Nc3ccc(Cl)cc3Cl)ncnc12
readout_name: IC50
assay_result: 3.1 µM
//
structure: COc1ccc(Nc2ncnc3c2sc2cc(OC)ccc23)c(F)c1
readout_name: IC50
assay_result: 0.71 µM
//
structure: COc1ccc2c(c1)oc1c(Nc3cccc(Cl)c3)ncnc12
readout_name: IC50
assay_result: > 10 µM
//
structure: COc1ccc2c(c1)sc1c(Nc3ccc(C#N)cc3)ncnc12
readout_name: IC50
assay_result: 2.6 µM
//
structure: COc1ccc2c(c1)oc1c(Nc3ccc(Br)cc3)ncnc12
readout_name: IC50
assay_result: > 10 µM
//
structure: COc1ccc(Nc2ncnc3c2oc2cc(OC)ccc23)c(F)c1
readout_name: IC50
assay_result: > 10 µM
//
structure: COc1ccc2c(c1)oc1c(Nc3cc(OC)c(OC)c(OC)c3)ncnc12
readout_name: IC50
assay_result: > 10 µM
//
structure: COc1ccc2c(c1)oc1c(Nc3ccc(F)c(Cl)c3)ncnc12
readout_name: IC50
assay_result: > 10 µM
//
structure: COc1ccc(Nc2ncnc3c2oc2cc(OC)ccc23)cc1
readout_name: IC50
assay_result: 0.88 µM
